# System: Staphylococcus aureus
# TEST_DESCRIPTION: Antibacterial activity against Staphylococcus aureus SA85 isolate
# Format: functional
Recorded measurements of MIC, one per entry
Entry rule: numbers only, all in µg/mL.

CCCCCCCC(=O)OCC(CO[C@@H]1O[C@H](CO)[C@H](O)[C@H](O)[C@H]1O)OC(=O)CCCCCCC (some centres undefined)    32

Query :: Look at this molecule and give its reported MIC. CC/C=C\C/C=C\C/C=C\CCCCCCCC(=O)OC(COC(=O)CCCCCCCCC)CO[C@@H]1O[C@H](CO)[C@H](O)[C@H](O)[C@H]1O (some centres undefined)
Result :: 64

Query :: Any idea what MIC was measured for CCCCC/C=C\C/C=C\CCCCCCCC(=O)OC(COC(=O)CCCCCCCCC)CO[C@@H]1O[C@H](CO)[C@H](O)[C@H](O)[C@H]1O (some centres undefined) ?
Result :: 64

Query :: What does the record list as MIC for CCCCCCCCCC(=O)OCC(CO[C@@H]1O[C@H](CO)[C@H](O)[C@H](O)[C@H]1O)OC(=O)CCCCCCCCC (some centres undefined) ?
Result :: 32

Query :: So what does the record say about MIC for CC/C=C\C/C=C\C/C=C\CCCCCCCC(=O)OC(COC(=O)CCCCCCCCC)CO[C@@H]1O[C@H](CO)[C@@H](O)[C@H](O)[C@H]1O (some centres undefined) ?
Result :: 64
